assayText: inhibitors of Sendai virus-induced IRF3 signaling, primary screen, TLR/RLR signaling modifier project, cell-based, Sendai virus stimulus, luciferase, 10K MLSCN set (AID 602276);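 also: firefly luciferase from ISG56 promoter only with Renilla not read in this screen; 0% = Sendai virus plus DMSO and 100% = medium plus DMSO without virus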
conditionInfo: HEK293 RL24 IRF3 luciferase reporter, at 10 µM, stronger effect = higher value
Calls of active or inactive are those of the source.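 The calls were made as follows: active = inhibition at or above 50% at 10 µM; inactive = inhibition below 50%.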
assayReadout: inhibition

1) O=S(=O)(c1cccc2cnccc12)N1CCCNCC1 | 18.3% (inactive)
2) CCC(=O)O[C@@H]1CC(=O)O[C@H](C)CC=CC=C[C@@H](O)[C@H](C)C[C@H](CC=O)[C@H](O[C@H]2O[C@H](C)[C@@H](O[C@H]3C[C@@](C)(O)[C@@H](OC(=O)CC)[C@H](C)O3)[C@H](N(C)C)[C@H]2O)[C@H]1OC | -13.3% (inactive)
3) C=CCn1c(SCC#N)nc2c(c1=O)C(C)(C)Cc1ccccc1-2 | -4.84% (inactive)
4) CCOC(=O)C1CCN(c2nc3ccccc3nc2C(C#N)C(=O)OCCOC)CC1 (centres undefined) | 13.3% (inactive)
5) C[N+](C)(C)CCOP(=O)([O-])OC[C@H](O)CO | -4.92% (inactive)
6) C(=N\n1cnnc1)/c1cccnc1 | -11.4% (inactive)
7) CCOC(=O)[C@H](CCc1ccccc1)N[C@@H](C)C(=O)N1CCC[C@H]1C(=O)O | 9.18% (inactive)
8) COC(=O)c1cc(Br)c(=O)n(-c2nccs2)c1 | -0.165% (inactive)
9) COc1ccc(CCn2c(=N)c(C(=O)NCc3ccco3)cc3c(=O)n4ccccc4nc32)cc1 | 5.21% (inactive)

----------
assayText: inhibitors of TNFa-induced NFkB p65 translocation, primary screen, imaging, HUVEC, MLSMR starter and 10KST1 sets (AID 438);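 also: compound added about 3h40 before a 20 min TNFalpha stimulation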
conditionInfo: HUVEC TNFa-induced p65 nuclear translocation; measured here: nuclei count (cytotoxicity indicator), at 2.08 µM
assayReadout: cell count

1) CC1(C)CC(NC(=O)C23CCC(C)(/C(=N/O)C2)C3(C)C)CC(C)(C)N1 (centres undefined) | 378
2) Cc1ccc(SCc2c(C#N)c3ccccc3n2C)cc1 | 288
3) COC(=O)c1[nH]c(C)c(/C(O)=C2\C(=O)C(=O)N(CCN3CCOCC3)C2c2cccnc2)c1C (centres undefined) | 605
4) CCn1cc(C(=O)NCC2CCCO2)c(=O)c2cc(F)c(N3CCN(C)CC3)cc21 (centres undefined) | 570
5) COc1ccc(OC)c(C2C(C#N)=C(N)Oc3cc(C)[nH]c(=O)c32)c1 (centres undefined) | 544
6) COc1cc(NS(=O)(=O)c2ccc(N)cc2)nc(OC)n1 | 482
7) CCOc1ccc(Cc2nc(N)nc(N)n2)cc1 | 344
8) CCCCC1(C(=O)OCC)CC(CN2CCOCC2)OC1=O (centres undefined) | 448
9) OCCCc1nc2ccccc2n1CCc1ccccc1 | 390
10) Cc1nc(Nc2ncc3c(n2)CC(C)(C)CC3=O)nc2ccccc12 | 532
11) COc1ccc(-c2nnc3sc(-c4c(OC)cccc4OC)nn23)cc1 | 498
12) COc1ccc(C2/C(=C(/O)c3ccccc3)C(=O)C(=O)N2c2ncccn2)cc1OC (centres undefined) | 460
13) Nn1c(SCC(=O)Nc2ccc3c(c2)OCCO3)nnc1C(F)(F)F | 598
14) COc1ccc(C=NCCCN2CCOCC2)cc1 | 638
15) c1ccc(C2=Nn3c(nnc3-c3ccccn3)SC2)cc1 | 589
16) CCCCCn1c2nc3ccccc3nc2c2c(=O)n(CC(C)C)cnc21 | 641
17) COC(=O)CN(c1nc(C)c(Br)c(OC)n1)S(=O)(=O)c1ccc(C)cc1 | 598
18) Cn1nnc2c(sc3nc(N4CCOCC4)c4c(c32)CCCC4)c1=O | 611
19) Cc1cc(C)nc(NC2=NCC(=O)N2c2cccc(Cl)c2)n1 | 581
20) CCSc1nc(N)c2c3c(sc2n1)CCC3 | 602
21) CCCCOc1ccc(-c2nnc(N)s2)cc1 | 634
22) O=C(c1nsnc1-c1ccccc1O)N1CCCCC1 | 500
23) C=CCNC(=O)C(C#N)c1nc2ccccc2nc1N1CCCCCC1 (centres undefined) | 537
24) O=C(NC1CCCCC1)Nn1c(-c2ccccc2)nc2ccccc2c1=O | 695
